# TARGET UNDER TEST: BACE1 (Homo sapiens)
# Construct: purchased Invitrogen
# Sequence (P56817 46-501): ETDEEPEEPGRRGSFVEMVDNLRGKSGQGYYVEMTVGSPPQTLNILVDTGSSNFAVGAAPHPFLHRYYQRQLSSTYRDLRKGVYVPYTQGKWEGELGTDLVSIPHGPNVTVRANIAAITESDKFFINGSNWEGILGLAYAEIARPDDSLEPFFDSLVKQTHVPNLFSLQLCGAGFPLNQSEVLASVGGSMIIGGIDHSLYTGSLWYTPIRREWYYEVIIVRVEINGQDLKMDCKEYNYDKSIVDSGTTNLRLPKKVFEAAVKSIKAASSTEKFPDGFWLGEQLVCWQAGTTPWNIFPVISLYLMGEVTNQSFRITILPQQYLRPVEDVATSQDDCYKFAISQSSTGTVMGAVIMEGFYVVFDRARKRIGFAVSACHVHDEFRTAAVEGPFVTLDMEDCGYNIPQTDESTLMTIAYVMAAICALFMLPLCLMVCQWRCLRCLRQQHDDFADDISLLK
# METHOD: BACE1 enzymatic FRET assay
# Assay type: biochemical
# STATED CONDITIONS: pH 4.5, 10 µM compound, read-out: BACE1 percentage of inhibition at 10 µM
# maps each entry to its inhibition at 10 µM
QUANTITY KIND: inhibition at 10 µM (%)

>>> measured("O=C(Nc1ccc2c(c1)c(OCc1cccc(Cl)c1Cl)nn2Cc1cccc2ccccc12)N1CCCC1 [Compound 12]")
43
>>> measured("Nc1ccc2c(c1)c(OCc1ccccc1)nn2Cc1ccccc1 [Compound 27, 5-amino-1-benzyl-3-(benzyloxy)indazole]")
2
>>> measured("CN(C(=O)Nc1ccc2c(c1)c(OCc1cccc3ccccc13)nn2Cc1ccc(Cl)cc1)c1ccccc1 [Compound 9]")
29
>>> measured("Nc1ccc2c(c1)c(OCc1ccc3ccccc3c1)nn2Cc1ccc(Cl)c(Cl)c1 [Compound 31]")
69
>>> measured("O=C(Nc1ccc2c(c1)c(OCc1cccc3ccccc13)nn2Cc1ccc(Cl)c(Cl)c1)N(c1ccccc1)c1ccccc1 [Compound 10]")
10
>>> measured("O=C(Nc1ccc2c(c1)c(OCc1ccccc1)nn2Cc1ccccc1)c1cccc(Cl)c1Cl [Compound 7]")
60
>>> measured("Nc1ccc2c(c1)c(OCc1cccc(Cl)c1Cl)nn2Cc1cccc2ccccc12 [Compound 30]")
79
>>> measured("Nc1ccc2c(c1)c(OCc1cccc3ccccc13)nn2Cc1ccc(Cl)c(Cl)c1 [Compound 34]")
72

====

Reported IC50 values for the following molecules.
# TARGET UNDER TEST: AChE from human erythrocytes (Homo sapiens, UniProt P22303)
# Sequence (P22303 32-617 isoform P22303-2 limits assumed): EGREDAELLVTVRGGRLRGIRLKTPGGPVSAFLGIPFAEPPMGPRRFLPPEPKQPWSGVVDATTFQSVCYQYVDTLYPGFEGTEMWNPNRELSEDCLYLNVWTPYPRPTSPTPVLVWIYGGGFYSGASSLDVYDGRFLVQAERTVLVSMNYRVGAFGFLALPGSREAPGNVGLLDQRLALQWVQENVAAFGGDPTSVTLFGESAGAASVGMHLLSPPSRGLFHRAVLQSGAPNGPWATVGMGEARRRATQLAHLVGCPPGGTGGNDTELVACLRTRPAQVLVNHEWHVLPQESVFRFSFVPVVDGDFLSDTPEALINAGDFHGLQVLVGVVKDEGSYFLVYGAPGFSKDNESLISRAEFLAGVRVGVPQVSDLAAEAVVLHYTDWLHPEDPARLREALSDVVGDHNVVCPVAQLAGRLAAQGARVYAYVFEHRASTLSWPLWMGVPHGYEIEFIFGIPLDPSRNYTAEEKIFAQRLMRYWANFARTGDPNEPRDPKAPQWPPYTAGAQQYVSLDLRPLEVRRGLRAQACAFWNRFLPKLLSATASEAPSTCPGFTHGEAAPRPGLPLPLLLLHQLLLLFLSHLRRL
QUANTITY KIND: IC50

>>> measured("Clc1ccc(Cn2nc(OCc3cccc4ccccc34)c3cc(NCCCN4CCCCC4)ccc32)cc1Cl [Compound 3]")
"> 10 µM"
>>> measured("CCN(CC)C(=O)Nc1ccc2c(c1)c(OCc1cccc3ccccc13)nn2Cc1ccccc1 [Compound 8]")
"> 10 µM"
>>> measured("Nc1ccc2c(c1)c(OCc1ccc3ccccc3c1)nn2Cc1ccc(Cl)c(Cl)c1 [Compound 31]")
"6 µM"
>>> measured("Nc1ccc2c(c1)c(OCc1cccc3ccccc13)nn2Cc1ccccc1 [Compound 32]")
"> 10 µM"

====

# TARGET UNDER TEST: UniProt P22303
// reported IC50 per item
QUANTITY KIND: IC50

>>> measured("O=C(Nc1ccc2c(c1)c(OCc1cccc(Cl)c1Cl)nn2Cc1cccc2ccccc12)N1CCCC1")
"> 10 µM"
>>> measured("CN1CCN(C(=O)Nc2ccc3c(c2)c(OCc2ccccc2)nn3Cc2cccc(Cl)c2Cl)CC1")
"> 10 µM"
>>> measured("O=C(Nc1ccc2c(c1)c(OCc1ccccc1)nn2Cc1ccccc1)c1cccc(Cl)c1Cl")
"7.6 µM"
>>> measured("Nc1ccc2c(c1)c(OCc1cccc3ccccc13)nn2Cc1ccc(Cl)c(Cl)c1")
"3.5 µM"
>>> measured("Clc1cccc(COc2nn(Cc3cccc4ccccc34)c3ccc(NCCCN4CCCCC4)cc23)c1Cl")
"> 10 µM"
>>> measured("Clc1ccc(Cn2nc(OCc3ccc4ccccc4c3)c3cc(NCCCN4CCCCC4)ccc32)cc1Cl")
"> 10 µM"
>>> measured("c1ccc2cc(COc3nn(Cc4ccc5ccccc5c4)c4ccc(NCCCN5CCCCC5)cc34)ccc2c1")
"9 µM"
>>> measured("c1ccc(Cn2nc(OCc3cccc4ccccc34)c3cc(NCCCN4CCCCC4)ccc32)cc1")
"> 10 µM"

====

# TARGET UNDER TEST: AChE from human erythrocytes (Homo sapiens)
# Construct: AChE from human erythrocytes (EC 3.1.1.7); purchased Sigma; host or cells: human erythrocytes (tissue-derived)
# METHOD: In vitro AChE inhibition assay (Ellman)
# Type: biochemical
# STATED CONDITIONS: 10 µM compound, read-out: AChE percentage of inhibition at 10 µM
Use 1 (yes) when the recorded inhibition at 10 µM is no lower than 30%; use 0 (no) when it is lower.

>>> category_label("Clc1ccc(Cn2nc(OCc3ccc4ccccc4c3)c3cc(NCCCN4CCCCC4)ccc32)cc1Cl [Compound 4]")
"0 (no)"
>>> category_label("O=C(Nc1ccc2c(c1)c(OCc1cccc3ccccc13)nn2Cc1ccc(Cl)c(Cl)c1)N(c1ccccc1)c1ccccc1 [Compound 10]")
"0 (no)"
>>> category_label("Clc1cccc(Cn2nc(OCc3ccccc3)c3cc(NCCCN4CCCCC4)ccc32)c1Cl [Compound 2]")
"0 (no)"
>>> category_label("Nc1ccc2c(c1)c(OCc1cccc(Cl)c1Cl)nn2Cc1cccc2ccccc12 [Compound 30]")
"1 (yes)"
>>> category_label("c1ccc(Cn2nc(OCc3cccc4ccccc34)c3cc(NCCCN4CCCCC4)ccc32)cc1 [Compound 1]")
"0 (no)"
>>> category_label("CCN(CC)C(=O)Nc1ccc2c(c1)c(OCc1cccc3ccccc13)nn2Cc1ccccc1 [Compound 8]")
"0 (no)"
>>> category_label("Clc1ccc(Cn2nc(OCc3cccc4ccccc34)c3cc(NCCCN4CCCCC4)ccc32)cc1Cl [Compound 3]")
"1 (yes)"

====

pIC50: −log10 of the molar value.
List of pIC50 tested on AChE from human erythrocytes (Homo sapiens).
QUANTITY KIND: pIC50

>>> measured("Nc1ccc2c(c1)c(OCc1ccccc1)nn2Cc1ccccc1 [Compound 27, 5-amino-1-benzyl-3-(benzyloxy)indazole]")
5.07
>>> measured("O=C(Nc1ccc2c(c1)c(OCc1cccc3ccccc13)nn2Cc1ccc(Cl)c(Cl)c1)N(c1ccccc1)c1ccccc1 [Compound 10]")
"< 5.00"
>>> measured("CN(C(=O)Nc1ccc2c(c1)c(OCc1cccc3ccccc13)nn2Cc1ccc(Cl)cc1)c1ccccc1 [Compound 9]")
"< 5.00"
>>> measured("Nc1ccc2c(c1)c(OCc1cccc3ccccc13)nn2Cc1ccc(Cl)cc1 [Compound 33]")
"< 5.00"
>>> measured("Nc1ccc2c(c1)c(OCc1ccc3ccccc3c1)nn2Cc1ccc2ccccc2c1 [Compound 28]")
5.39
>>> measured("Clc1cccc(Cn2nc(OCc3ccccc3)c3cc(NCCCN4CCCCC4)ccc32)c1Cl [Compound 2]")
"< 5.00"
>>> measured("Nc1ccc2c(c1)c(OCc1ccccc1)nn2Cc1cccc(Cl)c1Cl [Compound 29]")
"< 5.00"
>>> measured("Nc1ccc2c(c1)c(OCc1cccc(Cl)c1Cl)nn2Cc1cccc2ccccc12 [Compound 30]")
"< 5.00"

====

# System: Raw 264.7 cells
# METHOD: Cell viability (MTT) of Raw 264.7 cells
# Type: cell-based
# STATED CONDITIONS: 10 µM
QUANTITY KIND: Cytotoxicity on Raw 264.7 cells viability

>>> measured("Clc1cccc(Cn2nc(OCc3ccccc3)c3cc(NCCCN4CCCCC4)ccc32)c1Cl")
"show cytotoxicity"
>>> measured("Clc1ccc(Cn2nc(OCc3ccc4ccccc4c3)c3cc(NCCCN4CCCCC4)ccc32)cc1Cl")
"show cytotoxicity"
>>> measured("c1ccc(Cn2nc(OCc3cccc4ccccc34)c3cc(NCCCN4CCCCC4)ccc32)cc1")
"show cytotoxicity"

====

# TARGET UNDER TEST: BuChE from human serum (Homo sapiens, UniProt P06276)
# Construct: BuChE from human serum (EC 3.1.1.8); purchased Sigma; host or cells: human serum (tissue-derived)
# Sequence (P06276 29-602): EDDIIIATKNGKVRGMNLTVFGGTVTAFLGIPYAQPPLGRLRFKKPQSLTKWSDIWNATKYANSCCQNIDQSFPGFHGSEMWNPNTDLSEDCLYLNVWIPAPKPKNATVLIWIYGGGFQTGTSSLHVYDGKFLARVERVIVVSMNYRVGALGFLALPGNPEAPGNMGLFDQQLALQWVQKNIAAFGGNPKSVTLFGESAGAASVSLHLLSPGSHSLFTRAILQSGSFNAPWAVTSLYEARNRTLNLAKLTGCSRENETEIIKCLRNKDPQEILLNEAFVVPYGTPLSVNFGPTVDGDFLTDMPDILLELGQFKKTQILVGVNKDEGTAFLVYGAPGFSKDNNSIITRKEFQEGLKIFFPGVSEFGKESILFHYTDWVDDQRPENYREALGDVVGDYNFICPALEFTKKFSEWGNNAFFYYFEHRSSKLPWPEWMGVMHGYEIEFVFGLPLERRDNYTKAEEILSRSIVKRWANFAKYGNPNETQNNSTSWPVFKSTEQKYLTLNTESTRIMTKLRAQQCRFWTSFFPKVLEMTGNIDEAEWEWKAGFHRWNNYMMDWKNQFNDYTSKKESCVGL
# METHOD: In vitro BuChE inhibition assay (Ellman)
# Format: biochemical
# STATED CONDITIONS: 10 µM compound
QUANTITY KIND: BuChE percentage of inhibition at 10 µM

>>> measured("Nc1ccc2c(c1)c(OCc1ccccc1)nn2Cc1ccccc1")
"very slight inhibition"
>>> measured("Nc1ccc2c(c1)c(OCc1ccc3ccccc3c1)nn2Cc1ccc(Cl)c(Cl)c1")
"very slight inhibition"
>>> measured("Nc1ccc2c(c1)c(OCc1cccc3ccccc13)nn2Cc1ccc(Cl)c(Cl)c1")
"very slight inhibition"
>>> measured("Nc1ccc2c(c1)c(OCc1ccc3ccccc3c1)nn2Cc1ccc2ccccc2c1")
"very slight inhibition"

====

Measured IC50 (BACE1 (Homo sapiens, UniProt P56817))
QUANTITY KIND: IC50 (µM)

>>> measured("Clc1ccc(Cn2nc(OCc3cccc4ccccc34)c3cc(NCCCN4CCCCC4)ccc32)cc1Cl [Compound 3]")
2.1
>>> measured("CCN(CC)C(=O)Nc1ccc2c(c1)c(OCc1cccc3ccccc13)nn2Cc1ccccc1 [Compound 8]")
9.1
>>> measured("CN1CCN(C(=O)Nc2ccc3c(c2)c(OCc2ccccc2)nn3Cc2cccc(Cl)c2Cl)CC1 [Compound 11]")
2.8
>>> measured("c1ccc2cc(COc3nn(Cc4ccc5ccccc5c4)c4ccc(NCCCN5CCCCC5)cc34)ccc2c1 [Compound 6]")
3.4
>>> measured("Nc1ccc2c(c1)c(OCc1ccc3ccccc3c1)nn2Cc1ccc2ccccc2c1 [Compound 28]")
8.9

====

# TARGET UNDER TEST: BuChE from human serum (Homo sapiens, UniProt P06276)
# Construct: BuChE from human serum (EC 3.1.1.8)
# METHOD: In vitro BuChE inhibition assay (Ellman)
# STATED CONDITIONS: mean ± SEM, 3 experiments, butyrylthiocholine substrate
pIC50: −log10 of the molar value.
Consider the following molecules and their measured pIC50 readings.
QUANTITY KIND: pIC50

>>> measured("Clc1ccc(Cn2nc(OCc3ccc4ccccc4c3)c3cc(NCCCN4CCCCC4)ccc32)cc1Cl")
6.24
>>> measured("Nc1ccc2c(c1)c(OCc1ccccc1)nn2Cc1ccccc1")
"< 5.00"
>>> measured("Nc1ccc2c(c1)c(OCc1cccc3ccccc13)nn2Cc1ccccc1")
"< 5.00"
>>> measured("O=C(Nc1ccc2c(c1)c(OCc1cccc3ccccc13)nn2Cc1ccc(Cl)c(Cl)c1)N(c1ccccc1)c1ccccc1")
"< 5.00"
>>> measured("CN1CCN(C(=O)Nc2ccc3c(c2)c(OCc2ccccc2)nn3Cc2cccc(Cl)c2Cl)CC1")
"< 5.00"
>>> measured("Nc1ccc2c(c1)c(OCc1cccc(Cl)c1Cl)nn2Cc1cccc2ccccc12")
"< 5.00"
>>> measured("Nc1ccc2c(c1)c(OCc1ccccc1)nn2Cc1cccc(Cl)c1Cl")
"< 5.00"
>>> measured("O=C(Nc1ccc2c(c1)c(OCc1cccc(Cl)c1Cl)nn2Cc1cccc2ccccc12)N1CCCC1")
"< 5.00"
>>> measured("CN(C(=O)Nc1ccc2c(c1)c(OCc1cccc3ccccc13)nn2Cc1ccc(Cl)cc1)c1ccccc1")
"< 5.00"
>>> measured("c1ccc(Cn2nc(OCc3cccc4ccccc34)c3cc(NCCCN4CCCCC4)ccc32)cc1")
5.49
>>> measured("Nc1ccc2c(c1)c(OCc1cccc3ccccc13)nn2Cc1ccc(Cl)c(Cl)c1")
"< 5.00"
>>> measured("Nc1ccc2c(c1)c(OCc1cccc3ccccc13)nn2Cc1ccc(Cl)cc1")
"< 5.00"
>>> measured("Nc1ccc2c(c1)c(OCc1ccc3ccccc3c1)nn2Cc1ccc(Cl)c(Cl)c1")
"< 5.00"
>>> measured("Clc1cccc(Cn2nc(OCc3ccccc3)c3cc(NCCCN4CCCCC4)ccc32)c1Cl")
6.40
>>> measured("Nc1ccc2c(c1)c(OCc1ccc3ccccc3c1)nn2Cc1ccc2ccccc2c1")
"< 5.00"
>>> measured("Clc1cccc(COc2nn(Cc3cccc4ccccc34)c3ccc(NCCCN4CCCCC4)cc23)c1Cl")
"< 5.00"
>>> measured("CCN(CC)C(=O)Nc1ccc2c(c1)c(OCc1cccc3ccccc13)nn2Cc1ccccc1")
"< 5.00"
>>> measured("Clc1ccc(Cn2nc(OCc3cccc4ccccc34)c3cc(NCCCN4CCCCC4)ccc32)cc1Cl")
6.77
>>> measured("O=C(Nc1ccc2c(c1)c(OCc1ccccc1)nn2Cc1ccccc1)c1cccc(Cl)c1Cl")
"< 5.00"
>>> measured("c1ccc2cc(COc3nn(Cc4ccc5ccccc5c4)c4ccc(NCCCN5CCCCC5)cc34)ccc2c1")
5.43

Value source: paper PMC9477487
